system: NOMO1; assay: cell viability relative to DMSO control; higher = less cytotoxic; details: RPMI 5 mM glucose + 10% dialyzed FBS; 48 h; 15.4 µM
Quantity Name: cell viability (%)
Please give a number only; it is taken to be in %.

As a guide, the following entries are already answered.
Molecule	Value Reported
Cc1c(C(=O)NN2CCCCC2)nn(-c2ccc(Cl)cc2Cl)c1-c1ccc(Cl)cc1	28.1
CN1CCCN=C1/C=C/c1cccs1.O=C(O)c1cc2ccccc2c(Cc2c(O)c(C(=O)O)cc3ccccc23)c1O	64.4
Nc1nc(N)c2nc(CNc3ccc(C(=O)NC(CCC(=O)O)C(=O)O)cc3)cnc2n1 (centres undefined)	38.9

Fill in the recorded cell viability for this molecule, with NOMO1 as test system: `CSCC[C@@H](NC(=O)[C@@H](Cc1ccccc1)NC(=O)CNC(=O)CNC(=O)[C@@H](N)Cc1ccc(O)cc1)C(=O)O`
113
